- Test system: HLA-A*24
- Test Summary: MHC binding assay: UV-ligand exchange with beta2m ELISA (peptide exchange yield)
- Parameters: species or system human
- Recorded Conditions: Table 11, binding to HLA-A*24, UV-ligand exchange
Quantity Name: Peptide exchange (MHC class I binding score, peptide exchange yield)

* 202 (VYDTMIEKFA; listed as Homo sapiens) [compound 202] | ++ (>20% = ++)
* 236 (LHLYCLNTF; listed as Homo sapiens) [compound 236] | +++ (>50 = +++)
* 1 (IFPKTGLLII; listed as Homo sapiens) [compound 1] | ++++ (>75% = ++++)
* 2 (LYAPTILLW; listed as Homo sapiens) [compound 2] | ++++ (>75% = ++++)
* 43 (KYKDHFTEI; listed as Homo sapiens) [compound 43] | ++++ (>75% = ++++)
* 45 (YGQSKPWTF; listed as Homo sapiens) [compound 45] | ++ (>20% = ++)
* 243 (ALFPMGPLTF; listed as Homo sapiens) [compound 243] | ++ (>20% = ++)
* 35 (FSSTLVSLF; listed as Homo sapiens) [compound 35] | ++ (>20% = ++)
* 355 (VYNNNSSRF; listed as Homo sapiens) [compound 355] | ++++ (>75% = ++++)
* 23 (VYSSFVFNLF; listed as Homo sapiens) [compound 23] | +++ (>50 = +++)
* 106 (LYAFLGSHF; listed as Homo sapiens) [compound 106] | ++++ (>75% = ++++)
* 312 (YLCMLYALF; listed as Homo sapiens) [compound 312] | ++ (>20% = ++)
* 159 (VFQPNPLF; listed as Homo sapiens) [compound 159] | ++ (>20% = ++)
* 135 (KYKQHFPEI; listed as Homo sapiens) [compound 135] | +++ (>50 = +++)
* 383 (PYFSPSASF; listed as Homo sapiens) [compound 383] | ++++ (>75% = ++++)
* 238 (YTCSRAVSLF; listed as Homo sapiens) [compound 238] | ++ (>20% = ++)
* 139 (AYAPRGSIYKF; listed as Homo sapiens) [compound 139] | ++++ (>75% = ++++)
* 82 (SYLENSASW; listed as Homo sapiens) [compound 82] | ++++ (>75% = ++++)
* 353 (AAFPGAFSF; listed as Homo sapiens) [compound 353] | ++ (>20% = ++)
* 126 (YSLLDPAQF; listed as Homo sapiens) [compound 126] | +++ (>50 = +++)
* 142 (PYWWNANMVF; listed as Homo sapiens) [compound 142] | ++++ (>75% = ++++)
* 76 (IYIYPFAHW; listed as Homo sapiens) [compound 76] | ++++ (>75% = ++++)
* 48 (AWSPPATLFLF; listed as Homo sapiens) [compound 48] | ++++ (>75% = ++++)
* 259 (FFLFIPFF; listed as Homo sapiens) [compound 259] | ++ (>20% = ++)
* 9 (TYINSLAIL; listed as Homo sapiens) [compound 9] | ++++ (>75% = ++++)
* 175 (SYFEYRRLL; listed as Homo sapiens) [compound 175] | ++ (>20% = ++)
* 296 (YQRPDLLLF; listed as Homo sapiens) [compound 296] | ++ (>20% = ++)
* 314 (SQHFNLATF; listed as Homo sapiens) [compound 314] | ++ (>20% = ++)
* 18 (KYVDINTFRL; listed as Homo sapiens) [compound 18] | ++++ (>75% = ++++)
* 112 (LYPDSVFGRLF; listed as Homo sapiens) [compound 112] | ++++ (>75% = ++++)
* 382 (SYPKELMKF; listed as Homo sapiens) [compound 382] | ++++ (>75% = ++++)
* 201 (VFPSVDVSF; listed as Homo sapiens) [compound 201] | ++++ (>75% = ++++)
* 334 (KVFGSFLTL; listed as Homo sapiens) [compound 334] | ++ (>20% = ++)
* 36 (VYLASVAAF; listed as Homo sapiens) [compound 36] | ++++ (>75% = ++++)
* 53 (LFQRVSSVSF; listed as Homo sapiens) [compound 53] | +++ (>50 = +++)
* 198 (VLAPVSGQF; listed as Homo sapiens) [compound 198] | +++ (>50 = +++)
* 370 (TQMDVKLVF; listed as Homo sapiens) [compound 370] | ++ (>20% = ++)
* 308 (AAFISVPLLI; listed as Homo sapiens) [compound 308] | ++++ (>75% = ++++)

###

- System: HLA-A*24
- Test Summary: MHC binding assay: UV-ligand exchange with beta2m ELISA (peptide exchange yield)
- Design: species or system human
- Recorded Conditions: Table 11, binding to HLA-A*24, UV-ligand exchange
Quantity Name: Peptide exchange (MHC class I binding score, peptide exchange yield)

- 71 (RYLPNPSLNAF; listed as Homo sapiens) [compound 71]: ++++ (>75% = ++++)
- 89 (TYVPSTFLVVL; listed as Homo sapiens) [compound 89]: ++++ (>75% = ++++)
- 44 (FYHEDMPLW; listed as Homo sapiens) [compound 44]: ++++ (>75% = ++++)
- 133 (FFYVTETTF; listed as Homo sapiens) [compound 133]: ++++ (>75% = ++++)
- 341 (RYENVSILF; listed as Homo sapiens) [compound 341]: ++++ (>75% = ++++)
- 362 (NYMDTDNLMF; listed as Homo sapiens) [compound 362]: ++++ (>75% = ++++)
- 124 (EYNVFPRTL; listed as Homo sapiens) [compound 124]: ++ (>20% = ++)
- 366 (RLGEFVLLF; listed as Homo sapiens) [compound 366]: +++ (>50 = +++)
- 174 (TYGEEMPEEI; listed as Homo sapiens) [compound 174]: ++ (>20% = ++)
- 145 (MYTIVTPML; listed as Homo sapiens) [compound 145]: ++++ (>75% = ++++)
- 321 (VYTVGHNLI; listed as Homo sapiens) [compound 321]: ++++ (>75% = ++++)
- 99 (ASAALTGFTF; listed as Homo sapiens) [compound 99]: ++ (>20% = ++)
- 85 (KYLSIPTVFF; listed as Homo sapiens) [compound 85]: ++++ (>75% = ++++)
- 212 (VYFVQYKIM; listed as Homo sapiens) [compound 212]: + (>10% = +)
- 67 (SYVLQIVAI; listed as Homo sapiens) [compound 67]: +++ (>50 = +++)
- 155 (PYSIYPHGVTF; listed as Homo sapiens) [compound 155]: ++++ (>75% = ++++)
- 186 (RRVTWNVLF; listed as Homo sapiens) [compound 186]: ++ (>20% = ++)
- 463 (VGGNVTSNF; listed as Homo sapiens) [compound 463]: +++ (>50 = +++)
- 326 (VHMKDFFYF; listed as Homo sapiens) [compound 326]: ++++ (>75% = ++++)
- 354 (QYIPTFHVY; listed as Homo sapiens) [compound 354]: ++++ (>75% = ++++)
- 284 (QFYSTLPNTI; listed as Homo sapiens) [compound 284]: + (>10% = +)
- 275 (PEYSLPVLTF; listed as Homo sapiens) [compound 275]: ++++ (>75% = ++++)
- 351 (GYFGTASLF; listed as Homo sapiens) [compound 351]: ++++ (>75% = ++++)
- 375 (YYAADQWVF; listed as Homo sapiens) [compound 375]: ++++ (>75% = ++++)
- 34 (LIFALALAAF; listed as Homo sapiens) [compound 34]: + (>10% = +)
- 193 (KYKPVALQCIA; listed as Homo sapiens) [compound 193]: ++ (>20% = ++)
- 199 (MFQFEHIKW; listed as Homo sapiens) [compound 199]: ++ (>20% = ++)
- 282 (ASYQQSTSSFF; listed as Homo sapiens) [compound 282]: ++ (>20% = ++)
- 264 (AYAIPSASLSW; listed as Homo sapiens) [compound 264]: ++ (>20% = ++)
- 152 (MHPGVLAAFLF; listed as Homo sapiens) [compound 152]: +++ (>50 = +++)
- 207 (IYKFIMDRF; listed as Homo sapiens) [compound 207]: ++++ (>75% = ++++)
- 42 (VYDSIWCNM; listed as Homo sapiens) [compound 42]: ++++ (>75% = ++++)
- 146 (NYFLDPVTI; listed as Homo sapiens) [compound 146]: +++ (>50 = +++)
- 274 (EYSLPVLTF; listed as Homo sapiens) [compound 274]: +++ (>50 = +++)
- 79 (FYIVTRPLAF; listed as Homo sapiens) [compound 79]: +++ (>50 = +++)
- 181 (IHGIKFHYF; listed as Homo sapiens) [compound 181]: +++ (>50 = +++)
- 313 (IFMENAFEL; listed as Homo sapiens) [compound 313]: ++++ (>75% = ++++)
- 118 (IFLPFFIVF; listed as Homo sapiens) [compound 118]: ++++ (>75% = ++++)
